EXPERIMENTAL PROTOCOL: chemical genetic growth profiling, strain panel (AID 1159580);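 note: tested at 20 µM; growth read once vehicle control cultures reached saturation at 30 °C; 1 = growth at the plate median or of vehicle wells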
EXPERIMENTAL CONDITIONS: S. cerevisiae deletion strains, growth OD, locus YDL192W, strain arf1, stronger effect = lower value
In all, about 5,500 compounds went through this assay and about 2,000 (36%) were called active. Not shown: some 18% with an inconclusive outcome. The list shows a part of the results.
EXPERIMENTAL READOUT: normalized growth
Just the number, please, no unit after it.

COMPOUND	normalized growth
CC(=O)O[C@H]1CC[C@]2(C)C3CC[C@@]4(C)C(CC5O[C@@]6(CCC(C)CO6)[C@@H](C)C54)C3CC[C@@H]2C1 (stereo not given in full)	0.997

# normalized growth of CC(=O)OCC1=C(C(=O)O)N2C(=O)[C@@H](NC(=O)CCCC(N)C(=O)O)C2SC1 (stereo not given in full) = 1.01

# normalized growth of CC(=O)OCC(=O)[C@@]1(O)CCC2C3CC[C@@H]4C[C@H](OC(C)=O)CC[C@]4(C)C3C(=O)C[C@@]21C (stereo not given in full) = 1.01

# normalized growth of CC(NCCC(c1ccccc1)c1ccccc1)c1ccccc1 (stereo not given) = 0.985

----------
EXPERIMENTAL PROTOCOL: chemical genetic growth profiling, strain panel (AID 1159580)
EXPERIMENTAL CONDITIONS: S. cerevisiae deletion strains, growth OD, locus YGL173C, strain kem1
In all, about 5,500 compounds went through this assay and about 2,000 (36%) were called active. Roughly 18% stayed inconclusive and do not appear here. No stated cut-off is given here; in the data, active means normalized growth mostly below about 0.91 (no sharp cut-off); inconclusive means no clear call, values can overlap the other calls; inactive means mostly above about 0.92. The list shows a part of the results.
One label from this list, please: t (active), f (inactive)

Take a look at these entries with their results.
SMILES RECORD	CATEGORY LABEL
COc1cccc(OC)c1C(=O)N[C@@H]1C(=O)N2[C@@H]1SC(C)(C)[C@@H]2C(=O)O	f
Cc1onc(-c2ccccc2Cl)c1C(=O)N[C@@H]1C(=O)N2[C@@H]1SC(C)(C)[C@@H]2C(=O)O	f

Could you check what this test reported for COc1cc(-c2oc3cc(O)ccc3c(=O)c2O)ccc1O ?
t

Could you check what this test reported for CCNc1nc(Cl)nc(NCC)n1 ?
f

Could you check what this test reported for CC1(C)S[C@@H]2[C@H](NC(=O)[C@H](C(=O)O)c3cccs3)C(=O)N2[C@H]1C(=O)O ?
f

----------
EXPERIMENTAL PROTOCOL: chemical genetic growth profiling, strain panel (AID 1159580)
EXPERIMENTAL CONDITIONS: S. cerevisiae deletion strains, growth OD, locus YKR091W, strain srl3, stronger effect = lower value
Hit rate of the full screen: of about 5,500 compounds, about 2,000 (36%) were called active. About 18% were inconclusive and are not listed. Some of the results follow.
Each entry below carries its reported normalized growth.
Just the number, please, no unit after it.

COMPOUND	EXPERIMENTAL READOUT	QUANTITATIVE READOUT
C[C@]12CCC3C(CC[C@H]4C[C@H](OS(=O)(=O)O)CC[C@]34C)C1CCC2=O (some centres not stated)	normalized growth	1.04

# normalized growth of Cc1c(NC(=O)c2cccnc2)c(=O)n(-c2ccccc2)n1C = 1

# normalized growth of COC1(C)CCC2OC2(C)CCC2C1CC2(C)C (configuration not stated) = 1.01

# normalized growth of COC(=O)C[C@H]1C(C)(C)[C@@H](O)[C@@H]2CC3=C4C=C(OC)O[C@@H](c5ccoc5)[C@]4(C)CCC3[C@@]1(C)C2=O (some centres not stated) = 1

# normalized growth of CC(=O)NO = 0.985

# normalized growth of O=c1oc2c(O)c(O)cc3c(=O)oc4c(O)c(O)cc1c4c23 = 0.924

# normalized growth of CC(=O)[C@@]1(O)CCC2C3CCC4=CC(=O)CC[C@]4(C)C3CC[C@@]21C (some centres not stated) = 0.991

# normalized growth of NCCNCCNCCN = 0.991

----------
EXPERIMENTAL PROTOCOL: chemical genetic growth profiling, strain panel (AID 1159580)
EXPERIMENTAL CONDITIONS: S. cerevisiae deletion strains, growth OD, locus YLR102C, strain apc9, stronger effect = lower value
The whole screen tested about 5,500 compounds, of which about 2,000 (36%) were called active. Inconclusive results (about 18%) are left out. The list shows a part of the results.
Each entry below carries its reported normalized growth.
Just the number, please, no unit after it.

Consider the reported normalized growth for these compounds:
COMPOUND	EXPERIMENTAL READOUT	QUANTITATIVE READOUT
CC1(C)S[C@@H]2[C@H](NC(=O)Cc3ccccc3)C(=O)N2[C@H]1C(=O)O	normalized growth	1.02
C[C@]12CCC(=O)C=C1CCC1C2C(=O)C[C@@]2(C)C1CC[C@]2(O)C(=O)CO (stereo partly specified)	normalized growth	0.995
Cc1c(NC(=O)c2cccnc2)c(=O)n(-c2ccccc2)n1C	normalized growth	0.989
COc1cccc(OC)c1C(=O)N[C@@H]1C(=O)N2[C@@H]1SC(C)(C)[C@@H]2C(=O)O	normalized growth	0.985
CCC1(CC)C(=O)C=CNC1=O	normalized growth	1.01
CC[C@@H](CO)NC(=O)[C@@H]1C=C2c3cccc4[nH]cc(c34)C[C@H]2N(C)C1	normalized growth	0.985
COc1cc2c(cc1OC)[C@@H]1C(=O)c3ccc4c(c3O[C@@H]1CO2)CC(C(C)C)O4 (stereo partly specified)	normalized growth	1.01
CC(=O)O[C@@H]1CC[C@]2(C)C3CC[C@]4(C)C(=O)CCC4C3CC[C@H]2C1 (stereo partly specified)	normalized growth	0.991
CC(=O)O[C@H]1CC[C@]2(C)C3CC(=O)[C@]4(C)C(C(C)=O)=CCC4C3CC[C@H]2C1 (stereo partly specified)	normalized growth	1
CC(=O)CC1CCCCN1 (stereo unspecified)	normalized growth	0.996

# normalized growth of COc1ccc2c(=O)ccoc2c1 = 1.01

----------
Each entry below carries its reported normalized growth.
EXPERIMENTAL PROTOCOL: chemical genetic growth profiling, strain panel (AID 1159580);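 note: tested at 20 µM; growth read once vehicle control cultures reached saturation at 30 °C; 1 = growth at the plate median or of vehicle wells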
EXPERIMENTAL CONDITIONS: S. cerevisiae deletion strains, growth OD, locus YLL041C, strain sdh2, stronger effect = lower value
The campaign covered roughly 5,500 compounds. About 2,000 (36%) were called active. Roughly 18% stayed inconclusive and do not appear here. This is one part of the list.
Just the number, please, no unit after it.

COMPOUND	normalized growth
CC(=O)OC1CCC2(C)C3CC(=O)C4(C)C(CC5OC6(CCC(C)CO6)[C@@H](C)C54)C3CC[C@H]2C1 (stereo partly specified)	0.992

# normalized growth of CC1(C)C(=O)[C@@H]2C[C@@]3(O)C4=CC(=O)O[C@@H](c5ccoc5)[C@]4(C)CCC3[C@@](C)(C2=O)[C@H]1CC(=O)O (stereo partly specified) = 1.01

# normalized growth of c1ccc([C@H]2CN3CCSC3=N2)cc1 = 1.01

----------
Each entry below carries its reported normalized growth.
EXPERIMENTAL PROTOCOL: chemical genetic growth profiling, strain panel (AID 1159580);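 note: tested at 20 µM; growth read once vehicle control cultures reached saturation at 30 °C; 1 = growth at the plate median or of vehicle wells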
EXPERIMENTAL CONDITIONS: S. cerevisiae deletion strains, growth OD, locus YGR040W, strain KSS1, stronger effect = lower value
The whole screen tested about 5,500 compounds, of which about 2,000 (36%) were called active. Not shown: some 18% with an inconclusive outcome. The list shows a part of the results.
Just the number, please, no unit after it.

COMPOUND	EXPERIMENTAL READOUT	QUANTITATIVE READOUT
CS/C(Nc1cccc(C(F)(F)F)c1)=C(/C#N)S(=O)(=O)c1ccc(Cl)cc1	normalized growth	0.947
Cn1nc(-c2ccccc2)c(O)c(N=Nc2ccccc2)c1=O	normalized growth	0.905
S=C(N/N=C\c1cccs1)NC1CC2CCC1C2 (centres undefined)	normalized growth	0.909

Lab note: next compound to report on.
# normalized growth of COc1ccc(C2CC(c3ccc(C)cc3C)=NN2C(C)=O)cc1 (centres undefined) = 0.89

----------
EXPERIMENTAL PROTOCOL: chemical genetic growth profiling, strain panel (AID 1159580);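 note: tested at 20 µM; growth read once vehicle control cultures reached saturation at 30 °C; 1 = growth at the plate median or of vehicle wells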
EXPERIMENTAL CONDITIONS: S. cerevisiae deletion strains, growth OD, locus YJL134W, strain LCB3, stronger effect = lower value
In all, about 5,500 compounds went through this assay and about 2,000 (36%) were called active. Not shown: some 18% with an inconclusive outcome. Some of the results follow. Where a SMILES comes first, the peptide text is derived from it. [ ]: non-standard residue; d: D form. Orn = NCCC[CH](N)C(=O)O
EXPERIMENTAL READOUT: normalized growth

Consider the reported normalized growth for these compounds:
COMPOUND	normalized growth
CC(C)CC1NC(=O)C(CCCN)NC(=O)C(C(C)C)NC(=O)C2CCCN2C(=O)C(Cc2ccccc2)NC(=O)C(CC(C)C)NC(=O)C(CCCN)NC(=O)C(C(C)C)NC(=O)C2CCCN2C(=O)C(Cc2ccccc2)NC1=O (stereo unspecified) (cyclo(FPV[Orn]LFPV[Orn]L); configuration not given here)	1.01 (inactive)
c1ccc([C@H]2CN3CCSC3=N2)cc1	1.01 (inactive)
CC(=O)O[C@H]1CC[C@]2(C)C3CC(=O)[C@]4(C)C(C(C)=O)=CCC4C3CC[C@H]2C1 (stereo partly specified)	0.988 (inactive)
COc1cccc(OC)c1C(=O)N[C@@H]1C(=O)N2[C@@H]1SC(C)(C)[C@@H]2C(=O)O	0.998 (inactive)
CC1=NN(c2ccccc2)C(=O)C1	0.981 (inactive)
C[C@]12CCC(=O)C=C1CCC1C2C(=O)C[C@@]2(C)C1CC[C@]2(O)C(=O)CO (stereo partly specified)	1 (inactive)
CO[C@H]1C[C@H](O[C@H]2[C@H](C)[C@@H](OC3O[C@H](C)C[C@H](N(C)C)[C@H]3OC(C)=O)[C@@H](C)C[C@]3(CO3)C(=O)[C@H](C)[C@@H](OC(C)=O)[C@@H](C)[C@@H](C)OC(=O)[C@@H]2C)O[C@@H](C)[C@@H]1OC(C)=O (stereo partly specified)	1 (inactive)
C#C[C@]1(O)CCC2C3CCC4=Cc5oncc5C[C@]4(C)C3CC[C@@]21C (stereo partly specified)	0.944 (inactive)
O=C(O)[C@H](O)[C@@](O)(Cc1ccc(O)cc1)C(=O)O	1.02 (inactive)
COc1ccc2c(c1OC)OC[C@@H](c1ccc(OC)c(OC)c1OC)C2	1.01 (inactive)

Lab note: next compound to report on.
# normalized growth of O=C(CCBr)N1CCN(C(=O)CCBr)CC1 = 1.01 (inactive)
